- target.system: GPR139 (Homo sapiens, UniProt Q6DWJ6)
- Sequence (Q6DWJ6 1-353): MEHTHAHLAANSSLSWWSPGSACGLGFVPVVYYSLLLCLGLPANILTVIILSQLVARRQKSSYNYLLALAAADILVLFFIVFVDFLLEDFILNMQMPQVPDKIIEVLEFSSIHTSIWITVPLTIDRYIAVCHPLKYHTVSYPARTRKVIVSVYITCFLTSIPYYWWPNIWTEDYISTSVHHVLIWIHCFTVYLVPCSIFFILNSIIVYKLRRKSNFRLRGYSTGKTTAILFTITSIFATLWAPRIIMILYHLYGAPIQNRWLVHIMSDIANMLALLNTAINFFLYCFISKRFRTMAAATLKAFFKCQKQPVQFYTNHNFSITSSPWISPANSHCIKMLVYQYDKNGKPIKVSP
- procedure.summary: GPR139 Agonist titration / agonist counterscreen assay (calcium detection, HEK-GPR139 cells)
- Type: cell-based
- Parameters: expressed in transfected cells; host or cells: HEK Aequorin cells, Maxcyte transient transfection
- test.settings: GPR139 Agonist Activity; based on logD
# key: entry, value: Lipophilic Efficiency (logD)

>  <molecule>
O=C(Cn1nnc(-c2ccccc2)n1)NNC(=O)Cn1c(C(F)(F)F)nc2ccccc21

>  <Lipophilic Efficiency (logD)>
4.97

$$$$
>  <molecule>
CSc1cccc(NC(=O)C2C3C=CC4(O3)C2C(=O)N(C(C)c2ccccc2)C4C(=O)NC2CCCCC2)c1 (stereo not shown)

>  <Lipophilic Efficiency (logD)>
2.98

$$$$
>  <molecule>
CC1(c2ccc3ccccc3c2)NC(=O)C(CC(=O)NCc2ccco2)C1=O (stereo not shown)

>  <Lipophilic Efficiency (logD)>
4.73

$$$$
>  <molecule>
Cc1ccc(CNC(=O)COC(=O)c2ccc(Br)o2)cc1

>  <Lipophilic Efficiency (logD)>
4.12

$$$$

* * *

- target.system: GPR139 (Homo sapiens)
- procedure.summary: GPR139 Agonist titration / agonist counterscreen assay (calcium detection, HEK-GPR139 cells)
- Assay type: cell-based
- Parameters: expressed in transfected cells; host or cells: HEK Aequorin cells, Maxcyte transient transfection
- test.settings: GPR139 Agonist Activity; activity relative to known control
Listing of entries alongside the reported Averaged Max % Response (±St. Dev.).
test.readout: Averaged Max % Response (±St. Dev.) (%)

>  <compound>
COc1ccc(CCNC(=O)c2cncc(-c3csc4ccccc34)c2)cc1

>  <target.system>
GPR139 (Homo sapiens)

>  <value.unit>
%

>  <endpoint.value>
99.13

$$$$
>  <compound>
CC1(c2ccc3ccccc3c2)NC(=O)N(CC(=O)Nc2ccccc2Cl)C1=O (centres unmarked)

>  <target.system>
GPR139 (Homo sapiens)

>  <value.unit>
%

>  <endpoint.value>
117.24

$$$$
>  <compound>
O=C(CC(C(=O)N1CCc2ccccc21)n1ccnc1)N1CCCCCC1 (centres unmarked)

>  <target.system>
GPR139 (Homo sapiens)

>  <value.unit>
%

>  <endpoint.value>
93.44

$$$$
>  <compound>
COc1ccc(C)cc1NC(=O)NNC(=O)C(C)Oc1ccc(F)cc1Cl (centres unmarked)

>  <target.system>
GPR139 (Homo sapiens)

>  <value.unit>
%

>  <endpoint.value>
93.18

$$$$
>  <compound>
CSc1ccc(CCNC(=O)Cn2ncc3c(=O)oc4ccccc4c32)cc1

>  <target.system>
GPR139 (Homo sapiens)

>  <value.unit>
%

>  <endpoint.value>
100.11

$$$$
>  <compound>
Cc1onc(-c2ccccc2Cl)c1C(=O)NNC(=O)CSc1ccccc1[N+](=O)[O-]

>  <target.system>
GPR139 (Homo sapiens)

>  <value.unit>
%

>  <endpoint.value>
100.43

$$$$
>  <compound>
Cc1c(Cl)c([N+](=O)[O-])nn1CC(=O)NC(C)COc1ccccc1 (centres unmarked)

>  <target.system>
GPR139 (Homo sapiens)

>  <value.unit>
%

>  <endpoint.value>
76.40

$$$$
>  <compound>
CC1(c2ccc3ccccc3c2)NC(=O)C(CC(=O)NCc2ccco2)C1=O (centres unmarked)

>  <target.system>
GPR139 (Homo sapiens)

>  <value.unit>
%

>  <endpoint.value>
103.66

$$$$
>  <compound>
COc1ccc(CCNC(=O)Nc2ccc(C)cc2)cc1

>  <target.system>
GPR139 (Homo sapiens)

>  <value.unit>
%

>  <endpoint.value>
124.00

$$$$
>  <compound>
Cc1ccc(CCNC(=O)Cn2cc3c(n2)CCCCC3)cc1

>  <target.system>
GPR139 (Homo sapiens)

>  <value.unit>
%

>  <endpoint.value>
120.85

$$$$
>  <compound>
O=C(CN1CCCN(Cc2ccc(F)cc2Cl)C1=O)NC1CCCCC1

>  <target.system>
GPR139 (Homo sapiens)

>  <value.unit>
%

>  <endpoint.value>
112.56

$$$$
>  <compound>
Nc1c(Cl)c(Cl)nc(C(=O)OCC(=O)NCc2ccccc2)c1Cl

>  <target.system>
GPR139 (Homo sapiens)

>  <value.unit>
%

>  <endpoint.value>
129.62

$$$$
>  <compound>
CC1(c2ccc3c(c2)OCO3)NC(=O)N(CC(=O)NC2CCCC2)C1=O (centres unmarked)

>  <target.system>
GPR139 (Homo sapiens)

>  <value.unit>
%

>  <endpoint.value>
87.19

$$$$
>  <compound>
Cc1ccc(CN2CCCN(CC(=O)NC3CCCCCCC3)C2=O)c(Cl)c1

>  <target.system>
GPR139 (Homo sapiens)

>  <value.unit>
%

>  <endpoint.value>
112.24

$$$$
>  <compound>
COc1ccc2c(c1)C[C@H](C(=O)Nc1ccc(-c3cn[nH]c3)cc1OCC1CNC1)NC2.O=C(O)C(F)(F)F.O=C(O)C(F)(F)F.O=C(O)C(F)(F)F

>  <target.system>
GPR139 (Homo sapiens)

>  <value.unit>
%

>  <endpoint.value>
88.34

$$$$
>  <compound>
O=C(CN1CCN(Cc2ccc(F)cc2Cl)C1=O)NCc1ccccc1Cl

>  <target.system>
GPR139 (Homo sapiens)

>  <value.unit>
%

>  <endpoint.value>
99.14

$$$$
>  <compound>
CNc1ccc(CCNC(=O)Cn2c3ccccc3c3nc(=O)cc(C)n32)cc1

>  <target.system>
GPR139 (Homo sapiens)

>  <value.unit>
%

>  <endpoint.value>
109.30

$$$$
>  <compound>
Cc1cccc(NC(=S)NNC(=O)CSCc2cccc3ccccc23)c1

>  <target.system>
GPR139 (Homo sapiens)

>  <value.unit>
%

>  <endpoint.value>
88.97

$$$$
>  <compound>
COc1ccc(CCNC(=O)Nc2ccc3c(c2)CCCN3C(=O)C2CC2)cc1

>  <target.system>
GPR139 (Homo sapiens)

>  <value.unit>
%

>  <endpoint.value>
81.24

$$$$
>  <compound>
COc1cc(NC(=O)NCCc2ccc3c(c2)CCCN3C)cc(OC)c1

>  <target.system>
GPR139 (Homo sapiens)

>  <value.unit>
%

>  <endpoint.value>
93.59

$$$$
>  <compound>
C=C(CC1C=CC2=C1c1ccccc1CC2)Nc1ccc(CC)cc1 (centres unmarked)

>  <target.system>
GPR139 (Homo sapiens)

>  <value.unit>
%

>  <endpoint.value>
103.10

$$$$
>  <compound>
Cc1ccc(NC(=O)NCCCc2ccccc2)cc1

>  <target.system>
GPR139 (Homo sapiens)

>  <value.unit>
%

>  <endpoint.value>
68.10

$$$$
>  <compound>
COc1ccc(C2(C)NC(=O)N(CC(=O)Nc3cc(C)ccc3C)C2=O)cc1 (centres unmarked)

>  <target.system>
GPR139 (Homo sapiens)

>  <value.unit>
%

>  <endpoint.value>
111.04

$$$$
>  <compound>
CCCC1(CCC)NC(=O)N(CC(=O)NCc2ccc(Cl)cc2)C1=O

>  <target.system>
GPR139 (Homo sapiens)

>  <value.unit>
%

>  <endpoint.value>
89.45

$$$$
>  <compound>
O=C(Cn1nnc2c1-c1ccccc1OC2)Nc1cccc(Cl)c1

>  <target.system>
GPR139 (Homo sapiens)

>  <value.unit>
%

>  <endpoint.value>
104.44

$$$$
>  <compound>
CCOc1nn(CC)cc1-c1nnc(SCc2ccc(C(=O)OC)cc2)n1C

>  <target.system>
GPR139 (Homo sapiens)

>  <value.unit>
%

>  <endpoint.value>
101.90

$$$$
>  <compound>
Cc1nn(-c2ccccc2)nc1C(=O)NNC(=O)CSCc1cccc2ccccc12

>  <target.system>
GPR139 (Homo sapiens)

>  <value.unit>
%

>  <endpoint.value>
89.30

$$$$
>  <compound>
Cc1c(Cl)c(C(F)(F)F)nn1CC(=O)NCc1ccc(Cl)cc1

>  <target.system>
GPR139 (Homo sapiens)

>  <value.unit>
%

>  <endpoint.value>
80.96

$$$$
>  <compound>
O=C(CCc1nc2ccccc2s1)NNC(=O)C1CCCCC1

>  <target.system>
GPR139 (Homo sapiens)

>  <value.unit>
%

>  <endpoint.value>
118.50

$$$$
>  <compound>
CC(C)(C)CN1CCNC(=O)C1CC(=O)NCCc1cnn(-c2ccccc2)c1 (centres unmarked)

>  <target.system>
GPR139 (Homo sapiens)

>  <value.unit>
%

>  <endpoint.value>
91.26

$$$$
>  <compound>
Cc1ccc(C)c(C(=O)CCC(=O)NNC(=O)CSc2nc3ccccc3o2)c1

>  <target.system>
GPR139 (Homo sapiens)

>  <value.unit>
%

>  <endpoint.value>
119.67

$$$$
>  <compound>
CC(CCc1ccccc1)NC(=O)c1ccc2c(c1)C(Cc1ccccc1)C(=O)C[S+]2[O-] (centres unmarked)

>  <target.system>
GPR139 (Homo sapiens)

>  <value.unit>
%

>  <endpoint.value>
114.68

$$$$
>  <compound>
O=C(CN1CCCc2ccccc21)NNC(=O)Nc1ccc(Cl)c(Cl)c1

>  <target.system>
GPR139 (Homo sapiens)

>  <value.unit>
%

>  <endpoint.value>
96.54

$$$$
>  <compound>
COc1ccc(CNC(=O)Nc2ccc(-c3cn[nH]c3)cc2)cc1.O=C(O)C(F)(F)F

>  <target.system>
GPR139 (Homo sapiens)

>  <value.unit>
%

>  <endpoint.value>
110.92

$$$$
>  <compound>
O=C(CN1N=C(c2ccc(Cl)cc2)CCC1=O)NCCN1CCc2ccccc2C1

>  <target.system>
GPR139 (Homo sapiens)

>  <value.unit>
%

>  <endpoint.value>
81.84

$$$$
